Data origin, for the record: paper PMC6080781

target: gelsolin (Homo sapiens); construct: His tag (cleaved yes); made in house; host or cells: E. coli Rosetta2 (DE3) pLysS, pSY5 plasmid; assay: Steady-state fluorescence anisotropy of ATP-N binding to gelsolin; details: 0.5 μM ATP-N, 5 μM gelsolin; read-out: calcium concentration at which 50% of ATP-N remains bound to gelsolin
Observed Property: IC50 (µM)
Could you give me the number in µM? Just the number is fine.

Request: Report IC50 for [Ca+2] tested on gelsolin (Homo sapiens).
Result: 6.3

====

biological target: gelsolin (Homo sapiens, UniProt P06396); construct: His tag (cleaved yes); made in house; host or cells: E. coli Rosetta2 (DE3) pLysS, pSY5 plasmid; experiment: Steady-state fluorescence anisotropy of ATP-N binding to gelsolin; details: 0.5 μM ATP-N, 5 μM gelsolin; read-out: magnesium concentration at which 50% of ATP-N remains bound to gelsolin
Sequence (P06396 28-782): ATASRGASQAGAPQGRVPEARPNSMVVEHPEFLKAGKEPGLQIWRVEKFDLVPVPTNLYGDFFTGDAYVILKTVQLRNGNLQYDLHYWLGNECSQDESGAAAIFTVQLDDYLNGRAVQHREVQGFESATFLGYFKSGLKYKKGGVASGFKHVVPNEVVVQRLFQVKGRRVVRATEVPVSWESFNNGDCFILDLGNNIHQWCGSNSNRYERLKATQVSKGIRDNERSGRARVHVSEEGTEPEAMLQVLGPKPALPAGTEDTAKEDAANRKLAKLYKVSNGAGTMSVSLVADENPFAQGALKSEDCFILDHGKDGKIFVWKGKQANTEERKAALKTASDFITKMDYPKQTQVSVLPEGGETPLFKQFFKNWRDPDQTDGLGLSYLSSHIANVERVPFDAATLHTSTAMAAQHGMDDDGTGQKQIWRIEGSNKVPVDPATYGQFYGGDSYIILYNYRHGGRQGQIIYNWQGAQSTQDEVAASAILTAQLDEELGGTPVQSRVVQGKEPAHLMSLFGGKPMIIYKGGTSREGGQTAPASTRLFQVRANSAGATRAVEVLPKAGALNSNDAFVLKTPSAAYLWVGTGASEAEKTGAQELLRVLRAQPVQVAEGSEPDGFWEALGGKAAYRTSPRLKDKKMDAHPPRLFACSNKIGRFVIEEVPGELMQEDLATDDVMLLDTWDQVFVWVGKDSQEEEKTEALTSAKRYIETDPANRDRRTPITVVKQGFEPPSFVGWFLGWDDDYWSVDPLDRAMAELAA
Observed Property: IC50 (mM)
Could you give me the number in mM? Just the number is fine.

Request: Given the entry [Mg+2] , report its measured IC50.
Result: 5
